test system: BIKE; construct: gene BMP2K; settings: concentration: 1 μM, replicates: in singlicate; n = 1;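 note: KINOMEscan kinase panel screen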
Collected %Inh values appear next to each entry.

Solved cases (3 shown):
>>> df
                                chem_smiles  experimental_target  result
0  CCn1c(-c2nonc2N)nc2c(-c3ccccc3)ncc(OCCCN)c21.O=C(O)C(F)(F)F.O=C(O)C(F)(F)F                 BIKE      8%
1  COc1cc(Nc2ccnc3cc(-c4ccncc4)ccc23)cc(OC)c1OC.Cl                 BIKE      0%
2  Cc1ccc(NC(=O)c2cccc(N3CCCCC3)c2)cc1-c1ccc(C(=O)NCC2CC2)cc1                 BIKE     13%

Lab note: next molecule to report on.
Query: Print BIKE %Inh for "COC(=O)Nc1nc2cc(Oc3ccc(NC(=O)Nc4cccc(SC)c4)cc3)ccc2[nH]1.Cl" .
Result: 6%

---

Collected %Inh values appear next to each entry.
system: LATS2; conditions: concentration: 1 μM, replicates: in singlicate; n = 1
Write the answer as a number in %, unit excluded.

                                   compound  property_label  value_units  numeric_result
0  CSc1ccc(NC2=C(c3ccc(Cl)cc3)C(=O)NC2=O)cc1            %Inh            %               0
1  COc1cccc(C2=C(Nc3cccc(O)c3)C(=O)NC2=O)c1            %Inh            %               1
2  COc1ccc(NC(=O)c2ccoc2)cc1-c1ccc(C(=O)NCC2CC2)cc1            %Inh            %               0
3  Cl.Cl.NC(CNC(=O)c1cc(Br)c(-c2ccnc3[nH]ccc23)s1)c1ccccc1 (stereo not drawn)            %Inh            %            93.7
4                     CN(C)c1ncnc2nc[nH]c12            %Inh            %               0

Query: Query %Inh for "CN(c1ccc(F)c(NC(=O)c2cccc(OC(C)(C)C#N)c2Cl)c1)c1ccc2nc(NC(=O)C3CC3)sc2n1"
Result: 35

Query: Query %Inh for CC(C)NCC(Cc1ccccc1)NC(=O)c1cc(Br)c(-c2ccnc3[nH]ccc23)s1.Cl.Cl (stereo not drawn)
Result: 70

Query: Query %Inh for "Cc1ccc(O)cc1Nc1ccnc2cc(-c3ccc(CN4CCCCC4)o3)ccc12"
Result: 22

Query: Query %Inh for "CN(c1ccc(NC(=O)Nc2cccc(Cl)c2)cc1)c1ccnc(N)n1.Cl"
Result: 0

Query: Query %Inh for "Cc1ccc(O)cc1Nc1ccnc2ccc(C(C)(C)C)cc12"
Result: 0

Query: Query %Inh for "CN(C)CCOc1ccc(-c2cc(-c3ccc(Cl)c(O)c3)c(-c3ccncc3)[nH]2)cc1.Cl.Cl"
Result: 30

Query: Query %Inh for "Cc1ccc(NC(=O)c2cccc(N3CCCCC3)c2)cc1-c1ccc(C(=O)NCC2CC2)cc1"
Result: 16

Query: Query %Inh for "COc1cc(Nc2ccnc3cc(-c4ccncc4)ccc23)cc(OC)c1OC.Cl"
Result: 0

Query: Query %Inh for COc1cc(Nc2nccc(N3CCC(NC(=O)Nc4ccc5c(c4)OCO5)C3)n2)cc(OC)c1OC (stereo not drawn)
Result: 12

Query: Query %Inh for "O=C1NC(=O)C(c2ccccc2Cl)=C1Nc1cccc(Cl)c1"
Result: 0

Query: Query %Inh for "COC(=O)Nc1nc2ccc(Oc3ccc(NC(=O)Nc4cc(C(F)(F)F)ccc4F)cc3)cc2[nH]1.Cl"
Result: 0

Query: Query %Inh for "Cn1cc(-c2ccc3c(c2)CCN3C(=O)Cc2cc(F)cc(F)c2F)c2c(N)ncnc21"
Result: 7

Query: Query %Inh for "CC(=O)Nc1cn2nc(Oc3cccc(NC(=O)c4cccc(C(F)(F)F)c4)c3)ccc2n1"
Result: 0

---

test system: AKT1; details: concentration: 1 μM, replicates: in singlicate; n = 1
property.label: %Inh (%)
Write the answer as a number in %, unit excluded.

Solved cases (5 shown):
>>> print(df.to_string())
                                   molecule  property_label  numeric_result
0  Cc1ccc(Nc2ccnc(Nc3ccc(C)c(F)c3)n2)cc1O.Cl            %Inh               0
1  Cc1ccc(C)c(NC(=O)Nc2ccc(C)c(-c3ccc(C(=O)Nc4ccncc4)cc3)c2)c1            %Inh               0
2     O=C(Nc1n[nH]c2cc(-c3cccs3)ccc12)C1CC1            %Inh               0
3  CC(C)c1nc(-c2ccc(F)c(NS(=O)(=O)c3c(F)cccc3F)c2)c(-c2ccnc(Nc3ccc(N4CCOCC4)nc3)n2)s1            %Inh               0
4  Cl.Cl.NCC(NC(=O)c1cc(-c2cccnc2)c(-c2ccnc3[nH]ccc23)s1)c1ccccc1 (centres unmarked)            %Inh               7

Query: Query %Inh for "CCn1c(-c2nonc2N)nc2c(-c3ccccc3)ncc(OCCCN)c21.O=C(O)C(F)(F)F.O=C(O)C(F)(F)F"
Result: 72

Query: Query %Inh for "CN(C)CCOc1ccc(-c2cc(-c3ccc(Cl)c(O)c3)c(-c3ccncc3)[nH]2)cc1.Cl.Cl"
Result: 0

Query: Query %Inh for "O=C1NC(=O)C(c2ccccc2Cl)=C1Nc1cccc(Cl)c1"
Result: 0

---

Collected %Inh values appear next to each entry.
system: TRPM6; conditions: concentration: 1 μM, replicates: in singlicate; n = 1
Write the answer as a number in %, unit excluded.

                                   compound  experimental_target  property_label  value_units  numeric_result
0  Nc1ncc(-c2cn[nH]c2)c2scc(-c3ccc4c(c3)CCN4C(=O)Cc3ccccc3)c12                TRPM6            %Inh            %              16
1  CCNC(=O)/C=C/c1n[nH]c2cc(Sc3ccccc3C(=O)NC)ccc12                TRPM6            %Inh            %               0
2  CC(C)NCC(Cc1ccccc1)NC(=O)c1cc(Br)c(-c2ccnc3[nH]ccc23)s1.Cl.Cl (stereo not drawn)                TRPM6            %Inh            %               0
3  Cc1ccc(NC(=O)c2ccc(Cl)c(Cl)c2)cc1-c1ccc(C(=O)Nc2ccncc2)cc1                TRPM6            %Inh            %              14
4  CCOc1nccc(-c2c(-c3ccc(F)cc3)ncn2C2CCNCC2)n1                TRPM6            %Inh            %              18

Query: Query %Inh for "Cn1cc(-c2ccc3c(c2)CCN3C(=O)Cc2cc(F)cc(F)c2F)c2c(N)ncnc21"
Result: 8

Query: Query %Inh for "Cc1ccc(O)cc1Nc1ccnc2ccc(C(C)(C)C)cc12"
Result: 21

Query: Query %Inh for "Fc1cc(Cl)ccc1Nc1ccnc2cc(-c3ccc(CN4CCOCC4)o3)ccc12"
Result: 35

Query: Query %Inh for "Cc1ccc(NC(=O)c2ccnc(N3CCCCC3)c2)cc1-c1ccc(C(=O)NCC2CC2)cc1"
Result: 0

Query: Query %Inh for "Nc1cccc(-c2ccc3c(N)n[nH]c3c2)c1"
Result: 0

Query: Query %Inh for "COc1cccc2c(-c3ccncc3)c(-c3ccc(F)cc3)nn12"
Result: 9

Query: Query %Inh for "Cc1ccc(C)c(NC(=O)Nc2ccc(C)c(-c3ccc(C(=O)Nc4ccncc4)cc3)c2)c1"
Result: 2

Query: Query %Inh for Cc1ccc(-c2ccc3occ(-c4ccc(S(C)=O)cc4)c3c2)nn1 (stereo not drawn)
Result: 0

Query: Query %Inh for "O=C(Nc1n[nH]c2nc(-c3cccc(O)c3)ccc12)C1CC1"
Result: 3

Query: Query %Inh for "Nc1ncc(-c2ccc3nccc(-c4ccncc4)c3c2)cc1S(=O)(=O)N1CCCCC1"
Result: 0

Query: Query %Inh for "c1ccc(Oc2ccc(Nc3ccnc4cc(-c5ccc(CN6CCCCC6)o5)ccc34)cc2)nc1"
Result: 42

Query: Query %Inh for "COc1ccc(C)c(Nc2ccnc(Nc3ccc(-c4cnc[nH]4)cc3)n2)c1.Cl"
Result: 0

Query: Query %Inh for "COc1cccc(C2=C(Nc3cccc(O)c3)C(=O)NC2=O)c1"
Result: 4

Where these numbers come from: paper PMC5540273
